System: A549 NSCLC
Test: NCI tumour cell line growth inhibition, 48 h
quantity-measured: TGI

Before answering, review these 2 worked examples.
- molecule: "CCOc1ccc(N/C(=C(/C(Cl)=C(/Cl)NC(C)(C)C)[N+](=O)[O-])n2nnc3ccccc32)cc1"
  system-tested: "A549 NSCLC"
  TGI: "> 100 µM"
- molecule: "OCCn1cnc2c(SCc3ccccc3)ncnc21"
  system-tested: "A549 NSCLC"
  TGI: "> 100 µM"

Prompt line: Which value of TGI has been reported for NCCN.O=C([O-])CN1CCOCC1.[OH-].[Pt+4] in the records?
Response line: > 100 µM

Prompt line: Item: CCc1ccc2c(c1)C(=O)c1c-2n(CCCN=[N+]=[N-])c(=O)c2cc(OC)c(OC)cc12
Response line: > 100 µM

Prompt line: Item: C[C@]12CC[C@@H]3c4ccc(O)cc4CC[C@H]3[C@@H]1Cc1cnc(N)nc12
Response line: > 100 µM

Prompt line: Item: O=C(c1cc2c(c3ccccc13)NC1(CCCCC1)N=C2C(F)(F)F)C(F)(F)F
Response line: 16.3 µM

Prompt line: Item: CC(C)Oc1c(-c2ccc(F)cc2)c(O)c2c3c1oc(=O)n3C=CC2C (configuration not stated)
Response line: 28 µM

---

Test system: RPMI-8226 leukemia
Assay: NCI tumour cell line growth inhibition, 48 h
// Condition not met strictly below 40 µM in TGI; Condition met otherwise

Example entries and their recorded answers appear below.
- compound: "CC(C)(c1ccccc1)c1ccc(Oc2ccc(C#N)c(C#N)c2)cc1"
  system-tested: "RPMI-8226 leukemia"
  class-name: "Condition met"
- compound: "COc1cccc(C2c3cc4c(cc3OC(Nc3ccccc3)C2C)OCO4)c1OC (configuration not stated)"
  system-tested: "RPMI-8226 leukemia"
  class-name: "Condition not met"
- compound: "C#CC1(O)CCCCCCCCC2(CCCCCCCC1)OCCO2"
  system-tested: "RPMI-8226 leukemia"
  class-name: "Condition not met"
- compound: "Cn1cc(-c2csc(-c3cn(C)c4ccccc34)n2)c2ccccc21"
  system-tested: "RPMI-8226 leukemia"
  class-name: "Condition met"
- compound: "C=C1C[C@H](O)[C@H](Br)C(C)(C)C12CCC(C)(Cl)C(Br)C2 (some centres not stated)"
  system-tested: "RPMI-8226 leukemia"
  class-name: "Condition not met"
- compound: "CC(=O)OC(Cc1c(O)c2c(C)cccc2oc1=O)C(C)(C)O (configuration not stated)"
  system-tested: "RPMI-8226 leukemia"
  class-name: "Condition met"
- compound: "O=C(c1ccccc1)N1C(=S)N(c2ccccn2)C(=Nc2ccccc2)C1=Nc1ccccc1"
  system-tested: "RPMI-8226 leukemia"
  class-name: "Condition not met"
- compound: "O=C(CC(Cl)=C(Cl)Cl)c1ccccc1"
  system-tested: "RPMI-8226 leukemia"
  class-name: "Condition met"
- compound: "COc1cc([N+](=O)[O-])c(OC)cc1-c1nc2sccn2c1/C=N/N=C(N)N"
  system-tested: "RPMI-8226 leukemia"
  class-name: "Condition met"
- compound: "CC1=CC2c3cccc4[nH]cc(c34)CC2N(C)C1 (configuration not stated)"
  system-tested: "RPMI-8226 leukemia"
  class-name: "Condition met"

Prompt line: Is reported TGI greater than or equal to 40 µM here: CCO/C=N/C1=C(C#N)SC2=N/C(=C\c3ccccc3)C(=O)N21
Response line: Condition met

Prompt line: Item: COC(=O)C1=C(C)NC(C)=C(C(=O)OCC(C)C)C1c1ccccc1[N+](=O)[O-] (configuration not stated)
Response line: Condition not met

Prompt line: Item: Cc1ccc(Nc2nc3c(=O)n(C)c(=O)n(C)c3nc2Nc2ccc(C)cc2)cc1
Response line: Condition met

Prompt line: Item: O=[N+]([O-])c1cc(Cl)cnc1Br
Response line: Condition not met

Prompt line: Item: CCOP(=O)(OCC)OC1c2[nH]cc(C(=O)OCc3ccccc3)c2-c2cc(C(=O)OC)[nH]c2C1OC (configuration not stated)
Response line: Condition met

Prompt line: Item: COc1ccc(CC(=O)c2ccc(O)cc2O)cc1
Response line: Condition met

Prompt line: Item: Cc1ccc(N/C(SCc2ccccc2)=C(\C(Cl)=C(Cl)Cl)[N+](=O)[O-])c(C)c1
Response line: Condition met

Prompt line: Item: CC(Cl)CC(=O)OCC1CCCN2CCCCC12 (configuration not stated)
Response line: Condition met

Prompt line: Item: Fc1ccc(C(OCCN2CC3CCC(C2)N3CCCc2ccccc2)c2ccc(F)cc2)cc1
Response line: Condition not met

Prompt line: Item: COc1ccc(COC2CC(OC)OC(C)C2OC(=O)c2ccccc2)cc1 (configuration not stated)
Response line: Condition met

Prompt line: Item: O=C1/C(=N\O)S(=O)(=O)c2ccccc21
Response line: Condition met

Prompt line: Item: c1ccc2c(c1)OC(N1CCCC1)c1cnc(N3CCOCC3)nc1-2 (configuration not stated)
Response line: Condition met

Prompt line: Item: CCOC(=O)c1nnc2c(C#N)c(-c3ccccc3)c(C)n2c1N
Response line: Condition met

Prompt line: Item: CNC1(C(=O)O)CC1
Response line: Condition met
